Data credit: the supplement of paper PMC9877034

- System: C2C12 (NDUFB8-AcGFP / COX8A-DsRed-Monomer FRET reporter)
- Assay Text: cFRET/donor change relative to DMSO, normalised to beta-lapachone positive control (supercomplex I-IV assembly) (fraction of beta-lapachone effect); higher = more respiratory supercomplex assembly
- Test Parameters: 40 µM; 24 h
Structures can show the parent of a compound that is named as a salt. Over roughly 1,000 compounds, “cFRET/donor change relative to DMSO, normalised to beta-lapachone positive control (supercomplex I-IV assembly)” has its median near 0.18; the lowest 2% begin near -1. The sample holds the lowest values, similar compounds and a random draw of the others, so the mix is not that of the screen.
Rule: cFRET/donor change of 0.3 or more gives True; anything lower gives False.

Solved entries (count: 5):
Compound | Category Label
Cn1c(=O)c2nc[nH]c2n(C)c1=O | True
CCCCCc1ccc(/C=C/C(=O)Nc2cc(Cl)ccc2C(=O)O)cc1 | False
O=C1NC(=O)/C(=C\c2ccc3nccnc3c2)S1 | True
NCCC[C@](N)(C(=O)O)C(F)F (racemic) [DL-alpha-Difluoromethylornithine hydrochloride] | False
Nc1ccc(CCNc2ncnc3c2ncn3C2OC(CO)C(O)C2O)cc1 (configuration not stated) | True

Request: Is it the case that `CCCOc1ccccc1-c1nc2[nH]nnc2c(=O)[nH]1` has cFRET/donor change reaching or exceeding 0.3?
Result: False

Request: Is it the case that `CO[C@H]1C[C@@H]2CC[C@@H](C)[C@@](O)(O2)C(=O)C(=O)N2CCCC[C@H]2C(=O)O[C@H]([C@H](C)C[C@@H]2CC[C@@H](OC(=O)C(C)(CO)CO)[C@H](OC)C2)CC(=O)[C@H](C)/C=C(\C)[C@@H](O)[C@@H](OC)C(=O)[C@H](C)C[C@H](C)/C=C/C=C/C=C/1C` has cFRET/donor change reaching or exceeding 0.3?
Result: False

###

- System: C2C12 (NDUFB8-AcGFP / COX8A-DsRed-Monomer FRET reporter)
- Assay Text: cFRET/donor change relative to DMSO, normalised to beta-lapachone positive control (supercomplex I-IV assembly) (fraction of beta-lapachone effect); higher = more respiratory supercomplex assembly
- Test Parameters: 40 µM; 24 h
Structures can show the parent of a compound that is named as a salt. Whole data set: some 1,000 compounds, median “cFRET/donor change relative to DMSO, normalised to beta-lapachone positive control (supercomplex I-IV assembly)” near 0.18, cut for the lowest 2% near -1. What follows is part of a selection rich in the lowest values, with near analogues and random picks from the rest.
Documented cFRET/donor change across a set of compounds
Lab note: record the figure alone, no unit after it.

Request: Endpoint output: cFRET/donor change of `NS(=O)(=O)C#Cc1ccccc1` . Value?
Result: 0.551

Request: Endpoint output: cFRET/donor change of `CN(c1ccccc1CNc1nc(Nc2ccc3c(c2)CC(=O)N3)ncc1C(F)(F)F)S(C)(=O)=O` . Value?
Result: 0.036

Request: Endpoint output: cFRET/donor change of NC(N)=NC(=O)c1nc(Cl)c(N2CCCCCC2)nc1N [5-(N,N-hexamethylene)amiloride] . Value?
Result: 0.351

Request: Endpoint output: cFRET/donor change of `Nc1ccc(-c2nc3ccc(-c4nc5ccc(N)cc5[nH]4)cc3[nH]2)cc1` . Value?
Result: -0.494

Request: Endpoint output: cFRET/donor change of O=C1N=C(O)NC1(c1ccccc1)c1ccccc1 [Phenytoin sodium] . Value?
Result: 0.149

Request: Endpoint output: cFRET/donor change of `CC[N+](CC)(CC)CCOc1ccc(/C=C/c2ccccc2)cc1` . Value?
Result: 0.391

Request: Endpoint output: cFRET/donor change of CC(NCCc1ccc(O)cc1)C(O)c1ccc(O)cc1 (centres undefined) [Ritodrine hydrochloride] . Value?
Result: -0.0849

Request: Endpoint output: cFRET/donor change of `Cc1ccc(S(=O)(=O)/C=C/C#N)cc1` . Value?
Result: 0.324

Request: Endpoint output: cFRET/donor change of `CS(=O)(=O)c1ccc(-n2nc(C(F)(F)F)cc2-c2ccc(F)cc2)cc1` . Value?
Result: 0.187
